// pERK EC50 (nM) lookup, one value per entry
Target: T1, human MIC-1 receptor (hGFRAL, GDNF family receptor alpha like), full length (human, UniProt Q6UXV0 19-394)
T1 sequence (looked up): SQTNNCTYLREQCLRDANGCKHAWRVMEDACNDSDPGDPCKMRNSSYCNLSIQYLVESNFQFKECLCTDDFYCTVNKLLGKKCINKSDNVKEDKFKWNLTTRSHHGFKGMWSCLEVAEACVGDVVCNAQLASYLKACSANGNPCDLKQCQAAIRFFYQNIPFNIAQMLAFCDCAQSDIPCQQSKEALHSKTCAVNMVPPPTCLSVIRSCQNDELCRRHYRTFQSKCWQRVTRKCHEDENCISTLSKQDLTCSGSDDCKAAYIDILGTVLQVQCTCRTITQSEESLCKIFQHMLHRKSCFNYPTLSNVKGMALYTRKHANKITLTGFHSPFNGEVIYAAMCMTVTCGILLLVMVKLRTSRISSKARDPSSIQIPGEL
Experiment: cell-based or functional assay

# example entries with known answers
BINDER	VALUE MEASURED
(SEPATSGSETPG)2-MIC-1-Δ1-3(M57L) (ligand) SEPATSGSETPGSEPATSGSETPGGDHCPLGPGRCCRLHTVRASLEDLGWADWVLSPREVQVTMCIGACPSQFRAANLHAQIKTSLHRLKPDTVPAPCCVPASYNPMVLIQKTDTGVSLQTYDDLLAKDCHCI	0.6 nM
MIC-1(R2A,N3E,P85E) (ligand) AAEGDHCPLGPGRCCRLHTVRASLEDLGWADWVLSPREVQVTMCIGACPSQFRAANMHAQIKTSLHRLKPDTVPAPCCVPASYNEMVLIQKTDTGVSLQTYDDLLAKDCHCI	0.6 nM
MIC-1(R2A,N3E,R21E) (ligand) AAEGDHCPLGPGRCCRLHTVEASLEDLGWADWVLSPREVQVTMCIGACPSQFRAANMHAQIKTSLHRLKPDTVPAPCCVPASYNPMVLIQKTDTGVSLQTYDDLLAKDCHCI	0.6 nM
A(GPEQGQEP)3-MIC-1-Δ1-3 (ligand) AGPEQGQEPGPEQGQEPGPEQGQEPGDHCPLGPGRCCRLHTVRASLEDLGWADWVLSPREVQVTMCIGACPSQFRAANMHAQIKTSLHRLKPDTVPAPCCVPASYNPMVLIQKTDTGVSLQTYDDLLAKDCHCI	0.8 nM
MIC-1(R2A,N3E,A30E) (ligand) AAEGDHCPLGPGRCCRLHTVRASLEDLGWEDWVLSPREVQVTMCIGACPSQFRAANMHAQIKTSLHRLKPDTVPAPCCVPASYNPMVLIQKTDTGVSLQTYDDLLAKDCHCI	0.7 nM

Recorded pERK EC50 (nM) (binder MIC-1(R2A,N3E,A81E) (ligand) AAEGDHCPLGPGRCCRLHTVRASLEDLGWADWVLSPREVQVTMCIGACPSQFRAANMHAQIKTSLHRLKPDTVPAPCCVPESYNPMVLIQKTDTGVSLQTYDDLLAKDCHCI ): 0.3 nM

Recorded pERK EC50 (nM) (binder SEPATSGSETPGTSESATPESGPGTSTEPSEG-MIC-1-Δ1-3 (ligand) SEPATSGSETPGTSESATPESGPGTSTEPSEGGDHCPLGPGRCCRLHTVRASLEDLGWADWVLSPREVQVTMCIGACPSQFRAANMHAQIKTSLHRLKPDTVPAPCCVPASYNPMVLIQKTDTGVSLQTYDDLLAKDCHCI ): 0.4 nM
